Consider the following variants; for each one, report its protein stability index.
B1: TRIM15 (parent)
chain: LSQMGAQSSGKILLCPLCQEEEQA

variants of: B1; test: protein stability index of a GFP-peptide fusion (GPS, HEK-293T) (PSI 1-6); higher = more stable; settings: c terminus: a fixed tail appended;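 further: lentivirally expressed fusions sorted by FACS into six bins by GFP to DsRed ratio, PSI derived from sequencing read proportions per bin multiplied by bin number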
Numbers only.

Residue change: M4A
Reading: 4.66

Give protein stability index for each listed item.
1. Q19H
2. S2I

3.24
1.9

This collection of values is drawn from the supplement of paper PMC10567573.
